run parameters: in 2-ethoxyethanol, 308.15 K
measured property: solubility (mole fraction)

Query Cl.N=C(N)N yields solubility (mole fraction) of 0.321

###

run parameters: in NMP, 293.15 K
measured property: solubility (mole fraction)
Reply: number alone, nothing else.

solubility (mole fraction) reported for this molecule Cl.N=C(N)N : 0.154

###

run parameters: in n-propanol, 278.15 K
measured property: solubility (mole fraction)
Please state the value as a number alone, without comment.

Measured solubility (mole fraction) of Cl.N=C(N)N : 0.0373

###

run parameters: in DMAc, 318.15 K
measured property: solubility (mole fraction)
Lab note: record just the number, no unit beside it.

Kindly note the recorded solubility (mole fraction) for Cl.N=C(N)N , which is 0.415

###

run parameters: in isopropanol, 293.15 K
measured property: solubility (mole fraction)
Response field accepts a number only; no unit should be typed.

solubility (mole fraction) for Cl.N=C(N)N is 0.0803

###

run parameters: in 2-propoxyethanol, 303.15 K
measured property: solubility (mole fraction)
Provide a numeric answer; units are not to be included.

Lookup result for Cl.N=C(N)N ; measured solubility (mole fraction): 0.232

###

run parameters: in NMP, 313.15 K
measured property: solubility (mole fraction)
A bare number is all that is needed in reply.

Given item Cl.N=C(N)N , the value recorded as its solubility (mole fraction) is 0.216

###

run parameters: in DMF, 308.15 K
measured property: solubility (mole fraction)
Give the value as a plain number.

Lookup result for Cl.N=C(N)N ; measured solubility (mole fraction): 0.441

###

run parameters: in 2-ethoxyethanol, 298.15 K
measured property: solubility (mole fraction)

Form: compound = Cl.N=C(N)N ; solubility (mole fraction) = 0.296

###

run parameters: in 2-propoxyethanol, 323.15 K
measured property: solubility (mole fraction)

// recorded solubility (mole fraction) for Cl.N=C(N)N : 0.298

###

run parameters: in 2-methoxyethanol, 303.15 K
measured property: solubility (mole fraction)
Give your answer as a number; write no unit.

Value of solubility (mole fraction) reported for the compound Cl.N=C(N)N is 0.345

###

run parameters: in isopropanol, 323.15 K
measured property: solubility (mole fraction)
Lab note: jot the number down without any unit.

So, Cl.N=C(N)N ? Its solubility (mole fraction) was 0.149

###

run parameters: in 2-methoxyethanol, 278.15 K
measured property: solubility (mole fraction)

Kindly note the recorded solubility (mole fraction) for Cl.N=C(N)N , which is 0.293

###

run parameters: in NMP, 308.15 K
measured property: solubility (mole fraction)
Answer with a bare number; do not write a unit.

So for Cl.N=C(N)N , the logged solubility (mole fraction) turned out to be 0.201

###

run parameters: in NMP, 278.15 K
measured property: solubility (mole fraction)
The response must contain the number and no unit.

# solubility (mole fraction) (molecule: Cl.N=C(N)N ) is 0.116

###

run parameters: in 2-propoxyethanol, 318.15 K
measured property: solubility (mole fraction)
A bare number is all that is needed in reply.

What the record says about Cl.N=C(N)N : solubility (mole fraction) is 0.28

###

run parameters: in n-propanol, 318.15 K
measured property: solubility (mole fraction)
Write the value as a bare number.

Item: Cl.N=C(N)N | solubility (mole fraction): 0.103

###

run parameters: in methanol, 308.15 K
measured property: solubility (mole fraction)
Form field (numeric): enter value without unit.

Documented solubility (mole fraction) of Cl.N=C(N)N : 0.227
